target: CDK9/Cyclin T1 complex (Homo sapiens, UniProt P50750); test: CDK9 inhibition assay (Caliper/LabChip EZ Reader kinase assay); assay type: biochemical; conditions: Table 1; CDK9/Cyclin T1 8 nM, ATP 2 mM, 15 min at 27° C.
Sequence (P50750 whole entry, species assumed): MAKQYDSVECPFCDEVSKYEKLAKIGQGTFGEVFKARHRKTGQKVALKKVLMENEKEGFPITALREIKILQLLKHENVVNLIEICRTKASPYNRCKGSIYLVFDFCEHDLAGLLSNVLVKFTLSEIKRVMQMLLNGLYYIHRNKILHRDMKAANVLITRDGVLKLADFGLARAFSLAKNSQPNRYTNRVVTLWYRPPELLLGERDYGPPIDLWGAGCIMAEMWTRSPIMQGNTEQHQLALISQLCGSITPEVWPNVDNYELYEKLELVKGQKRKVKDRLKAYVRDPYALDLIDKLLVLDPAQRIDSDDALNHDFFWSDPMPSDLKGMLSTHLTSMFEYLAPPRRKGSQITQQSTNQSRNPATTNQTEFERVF
Sequence (O60563 whole entry partner, species assumed): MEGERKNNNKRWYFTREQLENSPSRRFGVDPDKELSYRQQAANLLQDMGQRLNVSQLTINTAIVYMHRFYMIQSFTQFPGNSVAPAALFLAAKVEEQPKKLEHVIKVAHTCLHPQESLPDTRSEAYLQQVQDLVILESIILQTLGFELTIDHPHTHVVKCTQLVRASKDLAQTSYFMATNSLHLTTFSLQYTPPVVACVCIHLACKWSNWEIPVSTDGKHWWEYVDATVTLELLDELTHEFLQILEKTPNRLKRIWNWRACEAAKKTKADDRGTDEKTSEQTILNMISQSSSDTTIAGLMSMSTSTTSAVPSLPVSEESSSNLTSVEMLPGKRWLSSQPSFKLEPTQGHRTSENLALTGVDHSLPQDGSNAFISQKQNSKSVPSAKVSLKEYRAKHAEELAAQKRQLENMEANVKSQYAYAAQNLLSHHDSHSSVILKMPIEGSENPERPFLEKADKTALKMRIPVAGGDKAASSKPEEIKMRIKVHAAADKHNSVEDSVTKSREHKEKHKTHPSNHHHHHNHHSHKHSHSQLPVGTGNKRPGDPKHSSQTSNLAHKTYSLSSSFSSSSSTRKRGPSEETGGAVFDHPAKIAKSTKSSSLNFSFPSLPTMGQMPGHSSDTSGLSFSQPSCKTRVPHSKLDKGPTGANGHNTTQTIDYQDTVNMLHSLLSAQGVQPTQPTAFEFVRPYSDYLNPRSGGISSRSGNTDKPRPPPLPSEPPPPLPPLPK
ASSAY_METRIC: IC50

Solved cases below.
[
  {
    "COMPOUND": "FC(F)(F)c1cnc(N[C@H]2CCCNC2)nc1-c1c[nH]c2cc(-c3nccs3)ccc12 [Compound 332]",
    "IC50": "0.2 to 5 µM"
  },
  {
    "COMPOUND": "CP(C)(=O)c1ccc2c(-c3nc(N[C@H]4CCCNC4)ncc3C(F)(F)F)c[nH]c2c1 [Compound 354]",
    "IC50": "> 5 µM"
  },
  {
    "COMPOUND": "Brc1cnc(NC2CCCNC2)nc1-c1c[nH]c2ccccc12 (stereo in doubt) [Compound 133]",
    "IC50": "0.2 to 5 µM"
  },
  {
    "COMPOUND": "[O-][S+](c1ccc2c(-c3nc(N[C@H]4CCCNC4)ncc3C(F)(F)F)c[nH]c2c1)C(F)F (stereo partly shown) [Compound 380]",
    "IC50": "0.2 to 5 µM"
  },
  {
    "COMPOUND": "CCOP(C)(=O)c1cccc2c(-c3nc(N[C@H]4CCCNC4)ncc3C(F)(F)F)c[nH]c12 (stereo partly shown) [Compound 179]",
    "IC50": "0.2 to 5 µM"
  }
]

What the record says about FCCc1cnc(N[C@H]2CCCNC2)nc1-c1c[nH]c2ccccc12 [Compound 206] : IC50 is 0.2 to 5 µM

What the record says about O=C1CCc2ccc(-c3ccc4c(-c5nc(N[C@H]6CCCNC6)ncc5C(F)(F)F)c[nH]c4c3)cc2N1 [Compound 334] : IC50 is 0.2 to 5 µM

What the record says about FC(F)(F)c1cnc(N[C@H]2CCCNC2)nc1-c1c[nH]c2cc(N3CCCC3)ccc12 [Compound 213] : IC50 is > 5 µM

What the record says about COC1CCN(C(=O)c2ccc3c(-c4nc(N[C@H]5CCCNC5)ncc4C(F)(F)F)c[nH]c3c2)C1 (single isomer, unassigned) [Compound 281] : IC50 is 0.2 to 5 µM

What the record says about CCc1cnc(N[C@H]2CCCNC2)nc1-c1c[nH]c2c(S(=O)(=O)O)cccc12 [Compound 362] : IC50 is > 5 µM

What the record says about Ic1cnc(N[C@H]2CCCNC2)nc1-c1c[nH]c2ccccc12 [Compound 147] : IC50 is 0.2 to 5 µM

What the record says about Clc1cnc(N[C@@H]2CN3CCC2CC3)nc1-c1c[nH]c2ccccc12 [Compound 131] : IC50 is > 5 µM

What the record says about Cc1n[nH]cc1-c1ccc2c(-c3nc(N[C@H]4CCCNC4)ncc3C(F)(F)F)c[nH]c2c1 [Compound 229] : IC50 is 0.2 to 5 µM

What the record says about FC(F)(F)Sc1cnc(NC2CCCNC2)nc1-c1c[nH]c2ccccc12 (stereo not shown) [Compound 305] : IC50 is 0.2 to 5 µM

What the record says about O=C(c1ccc2c(-c3nc(N[C@H]4CCCNC4)ncc3C(F)(F)F)c[nH]c2c1)N1C[C@@H](O)C(F)(F)C1 [Compound 349] : IC50 is 0.2 to 5 µM

What the record says about FC(F)(F)c1cnc(NC2CNCc3ccccc32)nc1-c1c[nH]c2ccccc12 (stereo not shown) [Compound 215] : IC50 is > 5 µM
